Listed here: items and their measured pIC50.
tested.target: Chk-1 kinase (Homo sapiens (Human), UniProt O14757)
Sequence (O14757 whole entry): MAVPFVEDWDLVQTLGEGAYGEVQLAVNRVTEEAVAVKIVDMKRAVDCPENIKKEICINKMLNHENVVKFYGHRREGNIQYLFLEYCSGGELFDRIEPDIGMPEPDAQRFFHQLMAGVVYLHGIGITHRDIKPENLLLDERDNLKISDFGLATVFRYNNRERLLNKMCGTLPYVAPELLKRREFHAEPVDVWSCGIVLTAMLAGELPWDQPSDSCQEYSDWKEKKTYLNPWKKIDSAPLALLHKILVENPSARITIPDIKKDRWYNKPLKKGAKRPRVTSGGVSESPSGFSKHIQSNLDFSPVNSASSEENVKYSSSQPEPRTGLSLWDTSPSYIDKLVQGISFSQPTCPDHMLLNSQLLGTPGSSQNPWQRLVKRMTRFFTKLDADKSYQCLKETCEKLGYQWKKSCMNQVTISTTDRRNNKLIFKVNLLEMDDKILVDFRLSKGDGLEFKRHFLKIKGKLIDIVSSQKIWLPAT
method.notes: Chk-1 Kinase Inhibiting Activity (33P-ATP filter assay, CHKtide substrate)
Assay type: biochemical
reported.conditions: against Chk-1 kinase; read-out: IC50
Counter-ions that a name gives are not always drawn.
pIC50 (log units): -log10 of the concentration in mol/L.

Query :: I would be grateful if you could share the reported pIC50 for N#Cc1cnc(Nc2cc(-c3ccc(C4CCNCC4)cc3)[nH]n2)cn1 .
Result :: 6.74

Query :: I would be grateful if you could share the reported pIC50 for COc1cc(NCc2ccccc2)cc(OC)c1-c1cc(Nc2cnc(C#N)cn2)n[nH]1 .
Result :: 8.55

Query :: I would be grateful if you could share the reported pIC50 for COc1cc(C2CCN(C(=O)CN(C)C)CC2)ccc1-c1cc(Nc2cnc(C#N)cn2)n[nH]1 [Example 17, hydrochloride] .
Result :: 9.54

Query :: I would be grateful if you could share the reported pIC50 for COc1cc(N2CCN(C)[C@H](C)C2)ccc1-c1cc(Nc2cnc(C#N)cn2)n[nH]1 .
Result :: 10.80

Query :: I would be grateful if you could share the reported pIC50 for COc1cc(C2CCN(CCF)CC2)ccc1-c1cc(Nc2cnc(C#N)cn2)n[nH]1 .
Result :: 9.77

Query :: I would be grateful if you could share the reported pIC50 for COc1cc(CN(C)CCN2CCOCC2)ccc1-c1cc(Nc2cnc(C#N)cn2)n[nH]1 .
Result :: 9.52

Query :: I would be grateful if you could share the reported pIC50 for COc1cc(C2CCN(C(C)C)CC2)ccc1-c1cc(Nc2cnc(C#N)cn2)n[nH]1 .
Result :: 10.00

Query :: I would be grateful if you could share the reported pIC50 for COc1cc(C2CCNCC2)ccc1-c1cc(Nc2cnc(C)cn2)n[nH]1 .
Result :: 6.64

Query :: I would be grateful if you could share the reported pIC50 for CCN1CCC(c2ccc(-c3cc(Nc4cnc(C#N)cn4)n[nH]3)c(OC)c2)C(F)(F)C1 (stereo not drawn) .
Result :: 8.74

Query :: I would be grateful if you could share the reported pIC50 for COc1cc(C2(F)CCNCC2)ccc1-c1cc(Nc2cnc(C#N)cn2)n[nH]1 .
Result :: 9.96

Query :: I would be grateful if you could share the reported pIC50 for CCN1CCN(c2ccc(-c3cc(Nc4cnc(C#N)cn4)n[nH]3)c(OC)c2)C[C@H]1C .
Result :: 10.80

Query :: I would be grateful if you could share the reported pIC50 for COc1cc(C2CCN(C)CC2(F)F)ccc1-c1cc(Nc2cnc(C#N)cn2)n[nH]1 (stereo not drawn) [Example 97, hydrochloride] .
Result :: 8.96

Query :: I would be grateful if you could share the reported pIC50 for N#Cc1cnc(Nc2cc(-c3ccc(CNCc4ccccc4)cc3)[nH]n2)cn1 .
Result :: 8.70

Query :: I would be grateful if you could share the reported pIC50 for CC(C)Oc1cc(C2CCN(C)CC2)ccc1-c1cc(Nc2cnc(C#N)cn2)n[nH]1 .
Result :: 9.06

Query :: I would be grateful if you could share the reported pIC50 for COc1cc(C2CCN(C)CC2)c(Cl)cc1-c1cc(Nc2cnc(C#N)cn2)n[nH]1 .
Result :: 8.74

Query :: I would be grateful if you could share the reported pIC50 for COc1cc(NCc2ccccc2)ccc1-c1cc(Nc2cnc(C#N)cn2)n[nH]1 .
Result :: 8.57

Query :: I would be grateful if you could share the reported pIC50 for COc1cc(N2CCNCC2)cc(F)c1-c1cc(Nc2cnc(C#N)cn2)n[nH]1 .
Result :: 10.11

Query :: I would be grateful if you could share the reported pIC50 for CCN1CCC(OCc2ccc(-c3cc(Nc4cnc(C#N)cn4)n[nH]3)c(OC)c2)CC1 .
Result :: 9.70

Query :: I would be grateful if you could share the reported pIC50 for COc1cc(C2C[C@H](C)N[C@@H](C)C2)ccc1-c1cc(Nc2cnc(C#N)cn2)n[nH]1 (stereo partly drawn) .
Result :: 9.64

Query :: I would be grateful if you could share the reported pIC50 for COc1cc(CNC(C)(C)CN2CCOCC2)ccc1-c1cc(Nc2cnc(C#N)cn2)n[nH]1 .
Result :: 9.54

// data source = patent US10010547B2
